Below, each entry is listed alongside its reported CC50 at 48 h.
Test method notes: in vitro
Condition description: human, hepg2 cells
Give a bare numeral; the unit µM is implied.

These recorded examples may help you get a feel for the data.
>>> df
                    structure_smiles_string  reported_value
0  CC1(C)N=C(N)N=C(N)N1c1ccc(OCCCOc2ccccc2)c(Cl)c1            7.69
1  Cc1cccc(NC2=C/C(=N\S(=O)(=O)c3cccs3)c3ccccc3C2=O)c1            34.3
2  O=C(c1cc(NC(=O)C23CC4CC(CC(C4)C2)C3)cc(NC(=O)C23CC4CC(CC(C4)C2)C3)c1)N1CCCCC1            43.2

# next compound below
Provide CC50 at 48 h value for the following compound: COc1ccc(/C=N/Nc2cc(C)nc3ccccc23)cc1 30.6

###

Tested on: HepG2
Condition description: human, hepg2 cells, 48 h
Measurement kind: Log AC50 (M)
Give a bare numeral; the unit M is implied.

These recorded examples may help you get a feel for the data.
>>> print(df.to_string())
                                   compound  unit_descriptor  reported_value
0  O=C(Nc1ccc(Oc2cccc(C(F)(F)F)c2)nc1)c1cccs1                M         -4.7643
1  COC(=O)C1=C(C)NC(C)=C(C(=O)OCCCN2CCC(c3ccccc3)(c3ccccc3)CC2)C1c1cccc([N+](=O)[O-])c1.Cl (centres unmarked)                M         -4.3643
2  O=C(N1CCCN(c2cc(-c3ccc(Cl)cc3)n[nH]2)CC1)C1(c2ccccc2)CC1                M         -4.3643
3    CCOc1ccc(NS(=O)(=O)c2csc(C(N)=O)c2)cc1                M         -4.6143

Provide Log AC50 (M) value for the following compound: Br.CCOC(=O)c1c(CSC(=N)N)n(-c2ccc(Br)cc2)c2cc(Br)c(OC(C)=O)cc12 -4.3143

Provide Log AC50 (M) value for the following compound: O=C(Nc1nnc(SCc2ccc(F)cc2)s1)c1ccccn1 -4.9643

Provide Log AC50 (M) value for the following compound: Cc1cccc(-c2cc3nc(C)c(C)c(NCCCn4ccnc4)n3n2)c1 -4.3143

Provide Log AC50 (M) value for the following compound: N=c1ccn(Cc2ccc(Cl)cc2)cc1 -4.4643

Provide Log AC50 (M) value for the following compound: COc1ccc(C(=O)N2CCC(n3cc(-c4nc(-c5ccccc5)no4)nn3)C2)cc1 (centres unmarked) -4.3643

Provide Log AC50 (M) value for the following compound: c1ccc(-c2nc(N3CCCCCC3)c3ccccc3n2)nc1 -5.5643

Provide Log AC50 (M) value for the following compound: C[S+](=O)([O-])N1CCC(OC2CCN(C(=O)Nc3cc(F)ccc3F)CC2)CC1 -4.3643

Provide Log AC50 (M) value for the following compound: CC(=O)c1cn(CCOc2ccc(F)cc2)c2ccccc12 -4.3643

Provide Log AC50 (M) value for the following compound: Cc1cc(NCc2ccccn2)n2nc(C)c(-c3ccccc3)c2n1 -5.9643

###

System: HepG2-A16-CD81EGFP cells
Condition description: nominal 1 uM (10 mM stock); […] for 15 mM, 1.2 uM for 12 mM, 2 uM for 20 mM stock; average of 2 wells; repeat 2
Below, each entry is listed alongside its reported HepG2 viability signal, 1 uM, repeat 2.

These recorded examples may help you get a feel for the data.
                                   molecule         system_under_test  reported_value
0  COc1ccc(Cl)cc1[S+](=O)([O-])N1CCC2(CCCNC2)C1 (centres unmarked)  HepG2-A16-CD81EGFP cells         104.68%
1  O=C(Nc1ccc2c(N3CCOCC3)ncnc2c1)c1cccc(Br)c1  HepG2-A16-CD81EGFP cells          93.24%

# next molecule below
Provide HepG2 viability signal, 1 uM, repeat 2 value for the following molecule: CCCN1C(CC(C)C)=N[S+](=O)([O-])c2cc(NC(=O)c3cccs3)ccc21 104.11%

###

Below, each entry is listed alongside its reported Log AC50 (M).
Tested on: HepG2
Condition description: human, hepg2 cells, 48 h
Give a bare numeral; the unit M is implied.

>>> print(df.to_string())
                                   molecule  measurement_kind  reported_value
0  O=C(NC1CCN(c2cc(-c3cccs3)n[nH]2)CC1)c1cccc(OC(F)(F)F)c1      Log AC50 (M)         -4.3643
1    COc1cc2nc(Nc3ccc(C)c(C)c3)nc(N)c2cc1OC      Log AC50 (M)         -4.3643
2  COc1ccc2cc1Nc1ccc(cc1)C[C@H](NC(=O)CCc1ccccn1)C(=O)N(C)[C@@H](C(=O)NCc1ccccc1)C2      Log AC50 (M)         -4.6143
3  CCC(C(=O)N1CCN(c2cc(-c3cccs3)n[nH]2)CC1)c1ccccc1 (stereo not drawn)      Log AC50 (M)         -4.3643
4     O=C(Nc1nc(-c2ccccn2)cs1)Nc1ccc(F)cc1F      Log AC50 (M)         -4.7643

Provide Log AC50 (M) value for the following molecule: c1ccc(-[n+]2nc(Nc3cccc4ccccc34)sc2-c2c3ccccc3cc3ccccc23)cc1 -4.3643

Provide Log AC50 (M) value for the following molecule: CCC1CCCCN1CCCNC(=O)c1ccc2c(c1)sc1nc(-c3ccc(F)cc3)cn12 (stereo not drawn) -4.4643

Provide Log AC50 (M) value for the following molecule: Cc1cccnc1Nc1nc(-c2ccccn2)cs1 -5.9643

Provide Log AC50 (M) value for the following molecule: O=C(Nc1ccc(C(F)(F)F)cc1)N1CCN(c2ccnc3cc(Cl)ccc23)CC1 -4.6143

Provide Log AC50 (M) value for the following molecule: Cc1cc(N2CCN(C)CC2)nc2ccc(NC(=O)Nc3ccccc3Br)cc12 -4.3643

Provide Log AC50 (M) value for the following molecule: CC1=C[C@@H](CNCc2cccnc2)[C@H](C(C)C)C[C@H]1Cc1nnc(-c2ccc(N(C)C)cc2)o1 -4.4643

###

Test system: P. berghei-ANKA-GFP-LucCON liver stage parasites in HepG2-A16-CD81EGFP cells
Test method notes: P. berghei liver stage Pb-Luc assay, Method 1 (UCSD, 1536-well)
Assay type: cell-based, Plasmodium berghei
Condition description: P. berghei liver stage, 3 µM dose, averaged response (percent)
Measurement kind: Average P. berghei 3 µM response( %)
Give a bare numeral; the unit % is implied.

Answer with Average P. berghei 3 µM response( %) of Cc1cc(Nc2cccc(C(F)(F)F)c2)nc2ccc(NC(=O)c3cncc(Br)c3)cc12 measured for P. berghei-ANKA-GFP-LucCON liver stage parasites in HepG2-A16-CD81EGFP cells. 38

Answer with Average P. berghei 3 µM response( %) of CCN(CC)CCn1c(=N)n(CC(O)COc2ccccc2C)c2ccccc21 (stereo not shown) measured for P. berghei-ANKA-GFP-LucCON liver stage parasites in HepG2-A16-CD81EGFP cells. 72

Answer with Average P. berghei 3 µM response( %) of CCN1CCN(Cc2ccc(NC(=O)c3cc(NC(=O)C(=O)c4c[nH]c5ccccc45)cc(OC)c3)cc2C(F)(F)F)CC1.O=C(O)C(F)(F)F measured for P. berghei-ANKA-GFP-LucCON liver stage parasites in HepG2-A16-CD81EGFP cells. 54

Answer with Average P. berghei 3 µM response( %) of c1cc(Nc2ncnc3sc4c(c23)CCC4)ccn1 measured for P. berghei-ANKA-GFP-LucCON liver stage parasites in HepG2-A16-CD81EGFP cells. 95

###

Test method notes: in vitro
Condition description: human, HepG2-A16-CD81EGFP cells, uninfected
Measurement kind: viability at 48 h, 1 µM (%)
Give a bare numeral; the unit % is implied.

>>> df
                                   molecule         measurement_kind  unit_descriptor  reported_value
0  CCOc1ccc(Cl)cc1CN(C)CC1(O)CCCNC1 (centres unmarked)  viability at 48 h, 1 µM                %            99.5
1  CCOC(=O)C1=C(C)NC2=C(C(=O)CCC2)C1c1cn(Cc2ccc(Cl)cc2Cl)nc1-c1ccccc1 (centres unmarked)  viability at 48 h, 1 µM                %             106
2  Cc1ccc2c(c1)[nH]c1c(N3CCN(Cc4ccccc4)CC3)ncnc12  viability at 48 h, 1 µM                %              82
3  CCC(O)(CC)C(=O)NN(C(=O)Nc1csc2c1CCCC2)c1ccccc1  viability at 48 h, 1 µM                %              98
4   COc1ccccc1NC(=O)CN1CCN(C(=O)c2ccco2)CC1  viability at 48 h, 1 µM                %             101

Provide viability at 48 h, 1 µM value for the following molecule: C/C(=N\NC(=O)c1ccccc1OCc1ccc(F)cc1)c1ccccn1 105

Provide viability at 48 h, 1 µM value for the following molecule: Oc1ccc(Cl)cc1-c1cc(C(F)(F)C(F)F)nc(-c2ccccc2)n1 93

Provide viability at 48 h, 1 µM value for the following molecule: CC1=C[C@@H](CN(C)C)[C@H](C(C)C)C[C@H]1Cc1nc2ncc(Cl)cc2[nH]1 106
